- assayedTarget: JAK1 (Homo sapiens (Human), UniProt P23458)
- Sequence (P23458 850-1154): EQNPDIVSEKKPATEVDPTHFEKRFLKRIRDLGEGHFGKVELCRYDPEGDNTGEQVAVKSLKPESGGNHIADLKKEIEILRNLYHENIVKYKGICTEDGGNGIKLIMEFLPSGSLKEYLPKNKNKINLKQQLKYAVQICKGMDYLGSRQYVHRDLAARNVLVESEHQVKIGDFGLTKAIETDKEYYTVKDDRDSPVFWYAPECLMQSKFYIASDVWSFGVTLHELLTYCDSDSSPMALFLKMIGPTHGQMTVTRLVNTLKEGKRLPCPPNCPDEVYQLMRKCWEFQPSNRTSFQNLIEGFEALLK
- runDescription: JAK kinase assay (HTRF), JAK1
- conditionsUsed: catalytic domain, ATP at Km (7 μM)
Items are presented alongside their recorded EC50.

{"smiles": "Cc1cc([C@@H](O)[C@H](C)NC(=O)[C@H]2CCN(c3ncnc4[nH]ccc34)CC23CC3)ncc1F", "EC50": "27.3 nM"}
{"smiles": "N#Cc1ccc(CNC(=O)[C@H]2CCN(c3ncnc4[nH]ccc34)CC23CC3)cc1", "EC50": "0.9 nM"}
{"smiles": "O=C(OCC1CC(F)(F)C1)[C@H]1CCN(c2ncnc3[nH]ccc23)CC12CC2", "EC50": "0.9 nM"}
{"smiles": "Cc1ccc([C@H](O)[C@H](C)NC(=O)[C@H]2CCN(c3ncnc4[nH]ccc34)CC23CC3)cc1", "EC50": "6.1 nM"}
{"smiles": "Cc1ccc([C@H](O)CNC(=O)[C@H]2CCN(c3ncnc4[nH]ccc34)CC23CC3)cc1", "EC50": "4.5 nM"}
{"smiles": "N#Cc1ccc(CNC(=O)[C@H]2CCN(c3ncnc4[nH]ccc34)CC23CC3)c(F)c1", "EC50": "1.4 nM"}
{"smiles": "O=C(N[C@H](CO)C(=O)OCC1(CO)CC1)[C@H]1CCN(c2ncnc3[nH]ccc23)CC12CC2", "EC50": "12.4 nM"}
{"smiles": "O=C(NCC1(CO)CC(F)(F)C1)[C@H]1CCN(c2ncnc3[nH]ccc23)CC12CC2", "EC50": "1.3 nM"}

====

- runDescription: in vitro metabolic stability in human liver microsomes
- Format: in vitro ADME
- conditionsUsed: human, liver microsomes, 0.5 μM compound, 0.5 mg/mL microsomes, NADPH, 40 min, 37° C.; read-out: Human liver microsome Clapp (apparent intrinsic clearance)

{"compound": "Cc1ccc([C@H](O)CNC(=O)[C@H]2CCN(c3ncnc4[nH]ccc34)CC23CC3)cc1", "qualifierSymbol": ">", "CLint scaled at 0.5 μM / mL/min/kg": 200}
{"compound": "O=C(NCc1ccccc1)C1CCN(c2ncnc3[nH]ccc23)CC12CC2 (stereo not shown)", "qualifierSymbol": "=", "CLint scaled at 0.5 μM / mL/min/kg": 135}
{"compound": "Cc1cc([C@@H](O)CNC(=O)[C@H]2CCN(c3ncnc4[nH]ccc34)CC23CC3)ncc1F (single isomer, unassigned)", "qualifierSymbol": "=", "CLint scaled at 0.5 μM / mL/min/kg": 195}
{"compound": "O=C(NCC1(CO)CC(F)(F)C1)C1CCN(c2ncnc3[nH]ccc23)CC12CC2 (stereo not shown)", "qualifierSymbol": "=", "CLint scaled at 0.5 μM / mL/min/kg": 41}

====

- assayedTarget: JAK1 (Homo sapiens (Human))
- runDescription: JAK kinase assay (HTRF), JAK1
- conditionsUsed: catalytic domain, ATP at Km (7 μM)
pEC50: −log10 of the molar value.
Items are presented alongside their recorded pEC50.

{"molecule": "O=C(NC[C@@H](O)C1CCCC1)[C@H]1CCN(c2ncnc3[nH]ccc23)CC12CC2 [Example 32]", "assayedTarget": "JAK1 (Homo sapiens (Human))", "pEC50": 8.74}
{"molecule": "N#C[C@H]1CC[C@H](CNC(=O)C2CCN(c3ncnc4[nH]ccc34)CC23CC3)C1 (some centres unmarked)", "assayedTarget": "JAK1 (Homo sapiens (Human))", "pEC50": 8.17}
{"molecule": "O=C(N[C@H](CO)C1CCCCC1)[C@H]1CCN(c2ncnc3[nH]ccc23)CC12CC2", "assayedTarget": "JAK1 (Homo sapiens (Human))", "pEC50": 7.60}
{"molecule": "O=C(NCc1cccnc1)C1CCN(c2ncnc3[nH]ccc23)CC12CC2 (centres unmarked)", "assayedTarget": "JAK1 (Homo sapiens (Human))", "pEC50": 7.69}
{"molecule": "C[C@@](CO)(NC(=O)[C@H]1CCN(c2ncnc3[nH]ccc23)CC12CC2)c1ccc(C#N)cc1", "assayedTarget": "JAK1 (Homo sapiens (Human))", "pEC50": 8.85}
{"molecule": "O=C(N[C@@H](CO)c1ccccc1)C1CCN(c2ncnc3[nH]ccc23)CC12CC2 (some centres unmarked)", "assayedTarget": "JAK1 (Homo sapiens (Human))", "pEC50": 8.29}
{"molecule": "COc1ccc(CNC(=O)C2CCN(c3ncnc4[nH]ccc34)CC23CC3)cc1 (centres unmarked)", "assayedTarget": "JAK1 (Homo sapiens (Human))", "pEC50": 8.09}
{"molecule": "C[C@@](CO)(NC(=O)[C@H]1CCN(c2ncnc3[nH]ccc23)CC12CC2)c1ccc(C#N)cn1", "assayedTarget": "JAK1 (Homo sapiens (Human))", "pEC50": 8.39}

====

- assayedTarget: JAK3 (Homo sapiens (Human))
- Sequence (P52333 822-1111): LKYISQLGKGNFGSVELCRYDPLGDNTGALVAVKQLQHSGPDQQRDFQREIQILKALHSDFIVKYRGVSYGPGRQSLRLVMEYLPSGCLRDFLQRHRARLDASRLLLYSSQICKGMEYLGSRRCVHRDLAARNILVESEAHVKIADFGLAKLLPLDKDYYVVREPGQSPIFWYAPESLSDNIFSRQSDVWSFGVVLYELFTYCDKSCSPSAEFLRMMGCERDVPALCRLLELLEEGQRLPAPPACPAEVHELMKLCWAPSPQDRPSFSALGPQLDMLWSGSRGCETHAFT
- runDescription: JAK kinase assay (HTRF), JAK3
- conditionsUsed: catalytic domain, ATP at Km (2 μM)
pEC50: −log10 of the molar value.
measurementLabel: pEC50

{"molecule": "N#Cc1ccc(CNC(=O)[C@H]2CCN(c3ncnc4[nH]ccc34)CC23CC3)c(F)c1 [Example 31]", "measurementLabel": "pEC50", "quantitativeResult": 7.81}
{"molecule": "Cc1cc([C@H](O)CNC(=O)[C@H]2CCN(c3ncnc4[nH]ccc34)CC23CC3)ncc1F [Example 44]", "measurementLabel": "pEC50", "quantitativeResult": 7.16}
{"molecule": "C[C@H](NC(=O)[C@H]1CCN(c2ncnc3[nH]ccc23)CC12CC2)[C@@H](O)c1cccc(F)c1 [Example 150]", "measurementLabel": "pEC50", "quantitativeResult": 8.51}
{"molecule": "N#Cc1ccc(CNC(=O)[C@H]2CCN(c3ncnc4[nH]ccc34)CC23CC3)cc1 [Example 13]", "measurementLabel": "pEC50", "quantitativeResult": 8.05}
{"molecule": "C[C@H](NC(=O)[C@H]1CCN(c2ncnc3[nH]ccc23)CC12CC2)[C@@H](O)c1ccc(F)c(F)c1 [Example 149]", "measurementLabel": "pEC50", "quantitativeResult": 9.22}
{"molecule": "N#Cc1ccc([C@@H](O)CNC(=O)[C@H]2CCN(c3ncnc4[nH]ccc34)CC23CC3)nc1 [Example 36]", "measurementLabel": "pEC50", "quantitativeResult": 7.60}
{"molecule": "O=C(N[C@@H](CO)C1CCCCC1)[C@H]1CCN(c2ncnc3[nH]ccc23)CC12CC2 [Example 24]", "measurementLabel": "pEC50", "quantitativeResult": 7.96}
{"molecule": "O=C(NCC1(CO)CCCC1)C1CCN(c2ncnc3[nH]ccc23)CC12CC2 (centres unmarked) [Example 58]", "measurementLabel": "pEC50", "quantitativeResult": 7.52}

====

- assayedTarget: TYK2 (Homo sapiens (Human))
- Sequence (P29597 871-1187): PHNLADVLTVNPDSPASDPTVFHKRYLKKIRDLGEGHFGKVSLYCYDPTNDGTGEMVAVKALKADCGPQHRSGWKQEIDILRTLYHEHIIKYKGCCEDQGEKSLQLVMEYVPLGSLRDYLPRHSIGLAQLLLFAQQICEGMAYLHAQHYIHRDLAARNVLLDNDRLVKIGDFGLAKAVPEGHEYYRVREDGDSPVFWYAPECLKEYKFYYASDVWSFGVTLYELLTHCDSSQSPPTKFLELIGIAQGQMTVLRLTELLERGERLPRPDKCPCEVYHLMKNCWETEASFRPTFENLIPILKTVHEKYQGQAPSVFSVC
- runDescription: JAK kinase assay (HTRF), TYK2
- conditionsUsed: catalytic domain, ATP at Km (13 μM)
pEC50: −log10 of the molar value.

{"molecule": "O=C(NCC1(O)CCCC1)C1CCN(c2ncnc3[nH]ccc23)CC12CC2 (stereo not shown)", "pEC50": 6.39}
{"molecule": "O=C(NCCc1ccccc1)C1CCN(c2ncnc3[nH]ccc23)CC12CC2 (stereo not shown)", "pEC50": 6.07}
{"molecule": "Cc1ccc([C@H](O)[C@H](C)NC(=O)[C@H]2CCN(c3ncnc4[nH]ccc34)CC23CC3)cc1", "pEC50": 6.77}
{"molecule": "C[C@@H](NC(=O)C1CCN(c2ncnc3[nH]ccc23)CC12CC2)c1ccccc1 (stereo partly shown)", "pEC50": 5.84}

====

- assayedTarget: UniProtKB P52333
- runDescription: JAK kinase assay (HTRF), JAK3
- conditionsUsed: catalytic domain, ATP at Km (2 μM)
pEC50: −log10 of the molar value.

{"compound": "O=C(N[C@@H](CO)c1ccccn1)[C@H]1CCN(c2ncnc3[nH]ccc23)CC12CC2", "pEC50": 6.82}
{"compound": "O=C(NCC1CCC1)C1CCN(c2ncnc3[nH]ccc23)CC12CC2 (stereo not shown)", "pEC50": 7.03}
{"compound": "C[C@@H](NC(=O)C1CCN(c2ncnc3[nH]ccc23)CC12CC2)c1ccc(C#N)cc1 (stereo partly shown)", "pEC50": 6.91}
{"compound": "C[C@H](NC(=O)[C@H]1CCN(c2ncnc3[nH]ccc23)CC12CC2)c1ccc(C#N)c(F)c1", "pEC50": 8.19}
{"compound": "COc1ccc(CNC(=O)C2CCN(c3ncnc4[nH]ccc34)CC23CC3)cc1 (stereo not shown)", "pEC50": 7.46}
{"compound": "Cc1cc([C@H](O)[C@H](C)NC(=O)[C@H]2CCN(c3ncnc4[nH]ccc34)CC23CC3)ccc1F", "pEC50": 7.40}
{"compound": "NS(=O)(=O)c1ccc(CNC(=O)C2CCN(c3ncnc4[nH]ccc34)CC23CC3)cc1 (stereo not shown)", "pEC50": 8.22}
{"compound": "O=C(NC[C@@H](O)c1ccccc1)C1CCN(c2ncnc3[nH]ccc23)CC12CC2 (stereo partly shown)", "pEC50": 7.23}
{"compound": "O=C(NCC(O)c1ccc(F)cn1)[C@H]1CCN(c2ncnc3[nH]ccc23)CC12CC2 (stereo partly shown)", "pEC50": 7.47}
{"compound": "Cc1ccc([C@H](O)[C@H](C)NC(=O)[C@H]2CCN(c3ncnc4[nH]ccc34)CC23CC3)cc1", "pEC50": 7.51}
{"compound": "O=C(NCC1(CO)CCCC1)[C@H]1CCN(c2ncnc3[nH]ccc23)CC12CC2", "pEC50": 7.64}
{"compound": "N#CCC1(COC(=O)[C@H]2CCN(c3ncnc4[nH]ccc34)CC23CC3)CC1", "pEC50": 7.89}
{"compound": "C[C@H](NC(=O)[C@H]1CCN(c2ncnc3[nH]ccc23)CC12CC2)[C@@H](O)c1ccc(F)cn1", "pEC50": 7.31}
{"compound": "C[C@H](NC(=O)[C@H]1CCN(c2ncnc3[nH]ccc23)CC12CC2)[C@@H](O)c1ccc(F)cc1", "pEC50": 8.13}
{"compound": "O=C(N[C@H](CO)c1ccccc1)C1CCN(c2ncnc3[nH]ccc23)CC12CC2 (stereo partly shown)", "pEC50": 7.17}
{"compound": "O=C(NCc1cccnc1)C1CCN(c2ncnc3[nH]ccc23)CC12CC2 (stereo not shown)", "pEC50": 7.23}
